Tested on: THP-1
Assay: Cytotoxicity against human THP-1 cells assessed as reduction in cell viability measured after 72 hrs by MTT assay
Format: functional, cell-based
Conditions: THP-1, 72 h
Rule: measured IC50 below 90 µM gets fulfilled; anything equal to or greater than 90 µM gets not fulfilled.

In the record for CC(CC[C@H]1/C(=C/c2ccc([N+](=O)[O-])cc2)CC[C@H]2C(C)(C)CCC[C@]12C)CC(=O)O (stereo partly specified) , is IC50 less than 90 µM?
fulfilled

In the record for CC(CC[C@H]1/C(=C/c2ccc(Cl)cc2)CC[C@H]2C(C)(C)CCC[C@]12C)CC(=O)O (stereo partly specified) , is IC50 less than 90 µM?
not fulfilled

In the record for COc1ccc(/C=C2\CC[C@H]3C(C)(C)CCC[C@]3(C)[C@H]2CCC(C)CC(=O)O)cc1OC (stereo partly specified) , is IC50 less than 90 µM?
not fulfilled

In the record for COc1cc([C@@H]2c3cc4c(cc3[C@@H](O[C@@H]3O[C@@H]5CO[C@@H](C)O[C@H]5[C@H](O)[C@H]3O)[C@H]3COC(=O)[C@H]23)OCO4)cc(OC)c1O [ETOPOSIDE] , is IC50 less than 90 µM?
fulfilled

In the record for COc1ccc(/C=C2\CC[C@H]3C(C)(C)CCC[C@]3(C)[C@H]2CCC(C)CC(=O)O)cc1 (stereo partly specified) , is IC50 less than 90 µM?
not fulfilled

In the record for CC(CC[C@H]1/C(=C/c2ccc(Br)cc2)CC[C@H]2C(C)(C)CCC[C@]12C)CC(=O)O (stereo partly specified) , is IC50 less than 90 µM?
not fulfilled

In the record for C=C1CC[C@H]2C(C)(C)CCC[C@]2(C)[C@H]1CCC(C)CC(=O)O (stereo partly specified) , is IC50 less than 90 µM?
not fulfilled

In the record for CC(CC[C@H]1/C(=C/c2ccc(I)cc2)CC[C@H]2C(C)(C)CCC[C@]12C)CC(=O)O (stereo partly specified) , is IC50 less than 90 µM?
fulfilled

In the record for C=C1CC[C@H]2C(C)(C)CCC[C@]2(C)[C@H]1CCC(C)CC(=O)OC (stereo partly specified) , is IC50 less than 90 µM?
not fulfilled

In the record for CC(CC[C@H]1/C(=C/c2ccc(F)cc2)CC[C@H]2C(C)(C)CCC[C@]12C)CC(=O)O (stereo partly specified) , is IC50 less than 90 µM?
not fulfilled

----------
Task for the reader: assign each of the following compounds its reported IC50.
Test system: K562
Assay: Cytotoxicity against human K562 cells assessed as reduction in cell viability measured after 24 hrs by MTT assay
Assay type: functional, cell-based
Conditions: K562, 24 h

Request the reported IC50 associated with COc1cc([C@@H]2c3cc4c(cc3[C@@H](O[C@@H]3O[C@@H]5CO[C@@H](C)O[C@H]5[C@H](O)[C@H]3O)[C@H]3COC(=O)[C@H]23)OCO4)cc(OC)c1O [ETOPOSIDE]
> 200 µM

Request the reported IC50 associated with COc1ccc(/C=C2\CC[C@H]3C(C)(C)CCC[C@]3(C)[C@H]2CCC(C)CC(=O)O)cc1 (stereo partly specified)
> 200 µM

Request the reported IC50 associated with C=C1CC[C@H]2C(C)(C)CCC[C@]2(C)[C@H]1CCC(C)CC(=O)OC (stereo partly specified)
> 200 µM

Request the reported IC50 associated with CC(CC[C@H]1/C(=C/c2ccc(Br)cc2)CC[C@H]2C(C)(C)CCC[C@]12C)CC(=O)O (stereo partly specified)
> 200 µM

Request the reported IC50 associated with CC(CC[C@H]1/C(=C/c2ccc(I)cc2)CC[C@H]2C(C)(C)CCC[C@]12C)CC(=O)O (stereo partly specified)
98 µM

Request the reported IC50 associated with C=C1CC[C@H]2C(C)(C)CCC[C@]2(C)[C@H]1CCC(C)CC(=O)O (stereo partly specified)
> 200 µM

Request the reported IC50 associated with CC(CC[C@H]1/C(=C/c2ccc([N+](=O)[O-])cc2)CC[C@H]2C(C)(C)CCC[C@]12C)CC(=O)O (stereo partly specified)
> 200 µM

Request the reported IC50 associated with CC(CC[C@H]1/C(=C/c2ccc(F)cc2)CC[C@H]2C(C)(C)CCC[C@]12C)CC(=O)O (stereo partly specified)
> 200 µM

Request the reported IC50 associated with COc1ccc(/C=C2\CC[C@H]3C(C)(C)CCC[C@]3(C)[C@H]2CCC(C)CC(=O)O)cc1OC (stereo partly specified)
> 200 µM

Request the reported IC50 associated with CC(CC[C@H]1/C(=C/c2ccc(Cl)cc2)CC[C@H]2C(C)(C)CCC[C@]12C)CC(=O)O (stereo partly specified)
> 200 µM

Request the reported IC50 associated with Cc1ccc(/C=C2\CC[C@H]3C(C)(C)CCC[C@]3(C)[C@H]2CCC(C)CC(=O)O)cc1 (stereo partly specified)
> 200 µM

src = ChEMBL document CHEMBL5030550
